test system: UO-31 renal; test: NCI-60 one-dose screen, 48 h; conditions: 10 µM unless noted
The panel holds about 83,000 compounds, 20% with a hit somewhere; the sample as a whole holds those more often. Activity calls are given as the source filed them. Rule for the calls: active = growth percent below 10; inactive = the rest.
Respond only with the outcome that fits, drawn from true = active, false = inactive

Outcome logged for `CC(=O)[C@H]1CC[C@H]2[C@@H]3C[C@H](C)C4=CC(=O)CC[C@]4(C)[C@H]3C(=O)C[C@]12C` in this assay:
false

Subsequent entry: `COc1ccc2c(c1)[n+](=O)c(/C=C/C(=O)c1cc(OC)c(OC)c(OC)c1)c(C)n2[O-]`
false

Moving on to CC1CN(/N=C/c2ccc([N+](=O)[O-])o2)C(=N)O1 (stereo not drawn)
false

Next molecule up: `O=C(CNC(=O)c1cccc2ccccc12)Nc1ccccc1Oc1cccc(O)c1`
false

What would you report for `CCCCCCCCCCOC(C)=O` ?
false

What do you get for `CCCCCN1C(=O)CCC1=O` ?
false

Repeat for the following molecule: `COc1ccc2cc(C3=CC(=O)CCC3)ccc2c1`
false

// same read-out, input: Cn1c(N2N=C(c3ccc(Cl)cc3)CC2c2ccccc2)nc(-c2ccccc2)c(C#N)c1=O (stereo not drawn)
false

Please do the same for `CNc1nc(NC2CCCC2)nc(Sc2ccc(OC)cc2)n1` as well.
false

What would you report for `CN1CCN(CCCOc2ccc3ncnc(Nc4ccc(OCc5cccc(F)c5)c(Cl)c4)c3c2)CC1` ?
true

Next entry: `CCc1ccc(-c2nc(SCC(=O)NC3CCCCC3)n[nH]2)cc1`
false

Same lookup for `CNNc1ncnc2c1cnn2-c1ccc(S(N)(=O)=O)cc1` , please.
false

Field entry: `C=CCN(/C=C/CN(CC=C)CC=C)CC=C`
false

Similarly, `O=C(Nc1ccccc1)c1cc(-n2cnc([N+](=O)[O-])c2)cc(-n2cnc([N+](=O)[O-])c2)n1` ?
false

Param item: `CSc1nc(Nc2ccc(S(=O)(=O)Nc3ccon3)cc2)c(C#N)c(-c2ccc(Cl)cc2)n1`
false

What do we get for `Cc1cc2ccccn2c1C(=O)c1ccc(C(=O)c2ccccc2)cc1` ?
false

Cool, now `COC(=O)N/N=C/c1coc2ccc(Cl)cc2c1=O`
false

Next up: `COc1cccc(CCN2C(=O)CCC3=C2CCC3=O)c1`
false

What about this molecule? `CCCCc1ccc(C(N)=O)nc1`
false

Another: `c1ccc(-c2nc(Nc3nccnn3)c3ccccc3n2)cc1`
false

Can you handle `C(=C1c2ccccc2-c2ccccc21)c1ccncc1` next?
false

What do we get for `CCCCCc1c(C)[nH]c(/C=C2\N=C(c3ccc[nH]3)C=C2Oc2ccc(Cl)cc2)c1C` ?
true

Same again, this time with `COc1cc(C(=O)c2cc3c(cc2C)OCO3)cc(OC)c1OC`
false

Try `COC(=O)[C@H](Cc1cn(C)cn1)NC(=O)[C@H](Cc1ccccc1)NC(=O)Nc1cc(C(F)(F)F)cc(C(F)(F)F)c1` next.
true

Try this molecule next: `Cc1sc2nc(N3CCCCC3)[nH]c(=O)c2c1C`
false

Now consider `O=[N+]([O-])c1ccc2[nH]cc(-c3c4ccccc4cc4[nH]c5ccc([N+](=O)[O-])cc5c34)c2c1` .
false

Next molecule up: `Nc1ncnc2c1CN(Cc1ccccc1)CC2`
false

// query: `CCOC(=O)Nc1cc(-c2ccc(C)c(NS(C)(=O)=O)c2)nn2c(C)nnc12`
true

Now give it for `O=C(COc1ccc(/C=C2\Cc3ccccc3C2=O)cc1)c1ccc(Cl)cc1` too.
true

Queued: `CN1CCN(c2nc3scc(-c4ccccc4)c3c(=O)[nH]2)CC1`
false

Another: `O=C1/C(=C\c2coc3ccccc3c2=O)c2ccccc2N1c1c(Cl)cccc1Cl`
false

Proceed to `Cc1cc(C)cc(S(=O)(=O)n2ccc(-c3ccc4c(c3)CCC(C)(C)O4)n2)c1`
false

Repeat for the following molecule: `CCN(CC)CCOCC[C@H]1CC[C@H]2[C@@H]3[C@H](C)Cc4cc(OS(N)(=O)=O)ccc4[C@H]3CC[C@]12C`
true

Next molecule up: `Cc1cc(=O)[nH]c(/C(=N/Nc2ccccc2)C(=O)c2ccc(Cl)cc2)n1`
false

What do we get for `c1ccc(-c2oc(-c3ccccc3)c3ccccc23)cc1` ?
false

What do you get for `C[C@@H]1C[C@@H]([C@@H](CC2CC(=O)NC(=O)C2)OC(=O)CC(=O)c2ccccc2)C(=O)[C@@H](C)C1` ?
true

Thanks! And `COc1cc(/C=N/NC(=O)c2ccc(C(F)(F)F)nc2Nc2cc(Cl)ccc2C)cc(OC)c1OC` ?
false

Would you mind doing `c1cc[n+](Cc2ccnc3ccccc23)cc1` as well?
false

Record: `O=C(N/N=C/c1cccc(O)c1O)c1ccccc1`
true

# repeat for `COC(=O)[C@H]1[C@H]2C[C@@H]3c4[nH]c5cc(OC)ccc5c4CCN3C[C@H]2C[C@@H](OC(=O)/C=C/c2cc(OC)c(OC)c(OC)c2)[C@@H]1OC`
false

Here is the next molecule: NS(=O)(=O)c1cc(C2(O)NC(=O)c3ccccc32)ccc1Cl (stereo not drawn)
false

Same for `Cc1ccc(-c2csc(N)n2)cc1`
false

Next record, please: CCOC(=O)C1=CCC(n2cc(C)c(=O)[nH]c2=O)O1 (stereo not drawn)
false

* * *

Answer each item with its documented growth.
tested on: OVCAR-3 ovarian; test: NCI-60 one-dose screen, 48 h (100 = growth as untreated, 0 = no growth, -100 = all killed); settings: 10 µM unless noted
The panel holds about 83,000 compounds, 20% with a hit somewhere; the sample as a whole holds those more often. Activity calls are given as the source filed them. How the source made its calls: active means growth percent below 10; inactive means the rest.

# get_value(readout='growth', item= CC1Cc2ccccc2N1C(=O)c1ccc(C(=O)c2ccccc2)cc1 (centres undefined) )
78.9% (inactive)

# repeat for `NC(=NCCCCCCN=C(N)/N=C(\N)Nc1ccc(Cl)cc1)/N=C(\N)Nc1ccc(Cl)cc1`
17% (inactive)

// next record C[C@H]1O[C@@H](O[C@H]2[C@@H](O)C[C@H](O[C@H]3[C@@H](O)C[C@H](O[C@H]4CC[C@]5(C)C6CC[C@]7(C)[C@@H](C8=CC(=O)OC8)CC[C@]7(O)C6CC[C@@H]5C4)O[C@@H]3C)O[C@@H]2C)C[C@H](O)[C@@H]1O (some centres undefined)
-100% (active)

Proceed to CS(=O)(=O)N1CCN(Cc2cc3nc(-c4cccc5[nH]ncc45)nc(N4CCOCC4)c3s2)CC1 (tested in a mixture with another compound)
12.4% (inactive)

What do you get for `Nc1ncnc2c1CN(Cc1ccccc1)CC2` ?
129% (inactive)

Moving on to the next compound: `CCOc1cc(CCNS(=O)(=O)c2ccc(C)cc2)c(C(C)=O)cc1OCC`
71.8% [100 µM] (inactive)

Okay, and `CSc1nc(Nc2ccc(S(=O)(=O)Nc3ccon3)cc2)c(C#N)c(-c2ccc(Cl)cc2)n1` ?
122% (inactive)

# repeat for `Cc1cc(C)c(C(=O)c2cccs2)c(C)c1`
113% (inactive)

And for `Cc1cc2ccccn2c1C(=O)c1ccc(C(=O)c2ccccc2)cc1` ?
96% (inactive)

// next record `O=C(O)C1CCN(S(=O)(=O)c2ccc(-c3ccccc3)cc2)CC1`
112% (inactive)

Follow-up entry: Nc1ccn(C2O[C@H](CO)[C@@H](O)[C@@H]2O)c(=O)n1 (some centres undefined)
67.6% (inactive)

Another compound to look at: `NC(=O)c1cc(Br)cc(Br)c1NS(=O)(=O)c1ccccc1`
106% (inactive)

Param item: `COc1ccc2c(c1)[n+](=O)c(C(=O)/C=C/c1cc(OC)c(OC)c(OC)c1)c(C)n2[O-]`
102% (inactive)

Next record, please: `O=C(C(=O)N1CCOCC1)c1cn(CCCn2cc(C(=O)C(=O)N3CCOCC3)c3ccccc32)c2ccccc12`
119% (inactive)

Follow-up item: `COc1ccc(OC)c(CCn2cncc2-c2c[nH]c3cc(Br)ccc23)c1`
32.7% (inactive)

Let us now turn to `Cc1cc(-c2ccccc2)cc(C)n1`
127% (inactive)

`Cc1ccc(-c2cc(-c3ccccc3)n(-c3ccccc3)n2)cc1` , same question.
103% (inactive)

Continue with `CSc1nc(N)c2c(n1)N(C)C=NS2(=O)=O`
122% (inactive)

Consider next the compound COc1ccc(C2=NN(C(C)=O)C(c3c(C)nn(-c4ccccc4)c3N3CCOCC3)C2)cc1 (centres undefined) in the same way.
104% (inactive)

* * *

test system: SW-620 colon; experiment: NCI-60 one-dose screen, 48 h; conditions: 10 µM unless noted
The panel holds about 83,000 compounds, 20% with a hit somewhere; the sample as a whole holds those more often. Calls of active or inactive are those of the source. The calls were made as follows: active = growth percent below 10; inactive = the rest.
Outcome (select one): active, inactive

Tell me the assay call for `CC(=O)Nc1c(Cl)cc2c(c1Cl)Cc1ccccc1-2` please.
inactive

Same question, `COc1cc(/C=N/NC(=O)c2ccc(C(F)(F)F)nc2Nc2cc(Cl)ccc2C)cc(OC)c1OC` this time
inactive

Also `O=C1C(=O)c2c(nc3ccc(Cl)cn23)-c2ccccc21` ?
active

Please do the same for CCCCCCCCCCCCC1CCCC(C)C1 (stereo unspecified) as well.
inactive

Request: `COc1ccc(NC(=O)c2ccc(-c3ccccc3)cc2)c(C(N)=O)c1`
inactive

And for Clc1ccc(C2=NN(c3ccc(Cl)cc3)C(c3cccc(Nc4ccnc5cc(Cl)ccc45)c3)C2)cc1 (stereo unspecified) ?
inactive
